- Experiment Description: solvent given as SMILES
- Run Conditions: in OCCO
Please provide measured emission maximum for the entries that follow.
Answers are plain numbers, in nm.

Observe how each entry below is paired with its result.
- Molecule: "Nc1ncnc2c1c(-c1ccc3ccccc3c1)nn2[C@H]1C[C@H](O)[C@@H](CO)O1"
  Reading Unit: "nm"
  Result Value: 365
- Molecule: "N#Cc1cccc2c(N)c(-c3nn([C@H]4C[C@H](O)[C@@H](CO)O4)c4ncnc(N)c34)ccc12"
  Reading Unit: "nm"
  Result Value: 529
- Molecule: "Nc1c(-c2nn([C@H]3C[C@H](O)[C@@H](CO)O3)c3ncnc(N)c23)ccc2ccccc12"
  Reading Unit: "nm"
  Result Value: 493
- Molecule: "O=C(O)C1=CC(=C/C=[N+]2/c3cc(O)c(C[C@@H]4O[C@H](CO)[C@@H](O)C(O)[C@H]4O)cc3C[C@H]2C(=O)O)C=C(C(=O)O)N1 (stereo partly drawn)"
  Reading Unit: "nm"
  Result Value: 594
- Molecule: "Cc1cc(O)c(C(C)C)cc1/N=C/c1ccc(C(F)(F)F)cc1"
  Reading Unit: "nm"
  Result Value: 438

Give me emission maximum for each of these molecules, listed below.
1. CCOC(=O)C1CC(c2c(C#N)c(C)nn2-c2ccccc2)=CN1c1ccc(Br)cc1 (stereo not drawn)
2. COc1ccc(/C=N/c2cc(C(C)C)c(O)cc2C)cc1

1. 495
2. 426

Which emission maximum is listed for `Fc1ccc(-c2nc3n(c2-c2ccncc2)CCS3)cc1` ?
440.5

* * *

- Experiment Description: solvent given as SMILES
- Run Conditions: in C1CCCCC1
Quantity Measured: emission maximum (nm)
Numbers only, in nm.

In the examples that follow, each entry is paired with its recorded emission maximum.
- Molecule: "c1cc2ccc1CCCc1cc3c(cc1CCCc1ccc(c4nsnc14)CCC3)CCC2"
  Reading Unit: "nm"
  emission maximum: 496
- Molecule: "CC(C)(C)c1ccc(C2=C(c3ccc(C(C)(C)C)cc3)C(c3ccc(C(C)(C)C)cc3)=[N+]3C2=C(c2ccccc2)c2c(-c4ccc(C(C)(C)C)cc4)c(-c4ccc(C(C)(C)C)cc4)c(-c4ccc(C(C)(C)C)cc4)n2[B-]3(F)F)cc1"
  Reading Unit: "nm"
  emission maximum: 634

Below are some molecules; for each one, tell me its emission maximum.
1. CN(C)c1cccc2c1C(=O)c1ccccc1-2
2. CCn1c2ccccc2c2ccc(-c3ccc(OC)cc3)cc21
3. CCCCCCCCCCCCC(CCCCCCCCCC)Cn1c2cc(/C=C/C=C/c3nc4ccccc4s3)c3cccc4c5cccc6c(/C=C/C=C/c7nc8ccccc8s7)cc1c(c65)c2c34 (configuration not stated)
4. Cc1ccc(C2=C3C=CC(C#Cc4ccccc4)=[N+]3[B-](F)(F)n3c(C#Cc4ccccc4)ccc32)cc1
5. c1ccc(N(c2ccccc2)c2ccc(-c3nc(-c4ccc(N(c5ccccc5)c5ccccc5)cc4)c4ccccc4n3)cc2)cc1

498
383
588
626
447

* * *

Give measured emission maximum for each item. Keep answers brief.
- Experiment Description: solvent given as SMILES
- Run Conditions: in C1CCCCC1
Numbers only, in nm.

Recorded emission maximum, per entry:
- Compound Structure String: "COc1ccc2c(c1)-c1cc(OC)ccc1C2=O"
  Reading Unit: "nm"
  emission maximum: 490
- Compound Structure String: "CCC1=C(C)C(=O)n2c1cc1[nH]c(C(=O)OC(C)(C)C)c(C)c1c2=O"
  Reading Unit: "nm"
  emission maximum: 443
- Compound Structure String: "CCCC1(CCC)c2cc(-c3ccco3)ccc2-c2ccc(-c3ccco3)cc21"
  Reading Unit: "nm"
  emission maximum: 377

For each of the items listed, what is its emission maximum?
1. Oc1ccccc1-c1nc(-c2ccccc2)c2ccccn12
2. Cc1cc(C)cc(C)c1
3. CN(C)c1ccc2nc(-c3ccccc3)sc2c1
4. N#C/C(=C\c1ccc(Cl)cc1)c1nc2ccccc2s1
5. CN(C)c1ccc(-c2nc3cccnc3[nH]2)cc1
6. Cc1ccc(/C=C/c2ccccc2-[n+]2noc([O-])c2-c2ccccc2)cc1

479
294.72
393
390
359
400

* * *

- Experiment Description: solvent given as SMILES
- Run Conditions: in ClCCl
Ranges used to classify emission maximum: low-valued: < 500 nm; mid-valued: ≥ 500 nm and < 600 nm; high-valued: ≥ 600 nm

Categorize the following entry: `F[B-]1(F)OC(/C=C/c2ccccc2)=CC(c2ccccc2)=[O+]1`
low-valued

Let us now turn to `N#CC1=c2c3cccc4cccc(c43)n2[B-](F)(F)[n+]2ccccc21`
mid-valued

Now the molecule `c1cnc(-c2c3ccccc3c(-c3ncccn3)c3ccccc23)nc1`
low-valued

Continue with `CC(C)(C)c1ccc2c(c1)c1cc(C(C)(C)C)ccc1n2-c1ccc(-c2nc(-c3ccc(-n4c5ccc(C(C)(C)C)cc5c5cc(C(C)(C)C)ccc54)cc3)nc(-c3ccc(P(=O)(c4ccccc4)c4ccccc4)cc3)n2)cc1`
mid-valued

N#Cc1ccc(C2=Cc3ccccc3P2(=O)c2ccccc2)cc1 (centres undefined) ?
low-valued

Similarly, `CC1=CC(C)=[N+]2C1=C(c1c3ccccc3cc3ccccc13)c1c(C)cc(C)n1[B-]2(F)F` ?
mid-valued

What would you report for `CCCCc1cc(CCCC)c2ccc3c(CCCC)cc(CCCC)c4ccc1c2c43` ?
low-valued

* * *

- Experiment Description: solvent given as SMILES
- Run Conditions: in Cc1ccccc1
Label Y when emission maximum is strictly below 500 nm; at or above that, label N.

Solved cases (4 shown):
- Compound Structure String: "Fc1c(-n2c3ccccc3c3ccccc32)c(-c2nnc(-c3ccccc3)o2)c(-n2c3ccccc3c3ccccc32)c(-n2c3ccccc3c3ccccc32)c1-n1c2ccccc2c2ccccc21"
  Label Class: "Y"
- Compound Structure String: "CC1=CC(c2ccc3cc(N(C)C)ccc3c2)=[O+][B-](F)(F)O1"
  Label Class: "N"
- Compound Structure String: "c1ccc(-c2nc(-c3ccccc3)nc(-c3cc(-n4c5ccccc5c5ncccc54)c(-n4c5ccccc5c5ncccc54)c(-n4c5ccccc5c5ncccc54)c3)n2)cc1"
  Label Class: "Y"
- Compound Structure String: "COCCC1=Cc2nc1ccc1[nH]c(cc1CCOC)c1nc(c(N3C(=O)CCCC3=O)cc3[nH]c2cc3CCOC)C(CCOC)=C1"
  Label Class: "N"

Identify whether the compound `c1ccc2c(c1)c1ccccc1n2-c1ccc(-c2nnc(-c3ccc(-n4c5ccccc5c5ccccc54)cc3)o2)cc1` records emission maximum below 500 nm.
Y

Item: `CCCC1=Cc2nc1ccc1[nH]c(cc1CCC)c1nc(c(NC(=O)CCCC(=O)OC)cc3[nH]c2cc3CCC)C(CCC)=C1`
N

Same for `COc1ccc(N2c3ccc4ccccc4c3-c3c4ccccc4cc[n+]3[B-]2(c2ccccc2)c2ccccc2)cc1`
N

Next compound up: `CC1(C)c2ccccc2N(c2ccc3c(c2)C(c2ccccc2)(c2ccccc2)c2cc(N4c5ccccc5C(C)(C)c5ccccc54)ccc2S3(=O)=O)c2ccccc21`
Y

* * *

Give emission maximum for every item shown.
- Experiment Description: solvent given as SMILES
- Run Conditions: in CO
One number for each entry, in nm.

- Molecule: "COC(=O)C(NC(=O)OC(C)(C)C)c1ccc2oc(-c3cc(OC)c(OC)cc3OC)nc2c1 (stereo unspecified)"
  Result Value: 389

Respectfully, I request emission maximum for each entry included below.
1. Nc1c(-c2nn([C@H]3C[C@H](O)[C@@H](CO)O3)c3ncnc(N)c23)ccc2ccccc12
2. CCCCCCCCN1c2ccc(C#Cc3ccc(C(F)(F)F)cc3)cc2Sc2cc(C=O)ccc21
3. Cc1ccc(-c2cc(-c3ccccc3)c3c(N)nc(N4CCCC4)c(C#N)c3n2)cc1
4. O=C(/C=C/c1ccc(O)c(O)c1)O[C@H](Cc1ccc(O)c(O)c1)C(=O)O
5. COC(=O)c1nc2c(N(C)C)nc(N(C)C)nc2n1Cc1ccccc1
6. CCCCCCN(CCCCCC)c1ccc(C#Cc2ccc([N+](=O)[O-])cc2)cc1
7. O=c1oc2cc3ccccc3cc2nc1-c1ccccc1

1. 498
2. 500
3. 527
4. 432
5. 432
6. 630
7. 548

* * *

Give emission maximum for every item shown.
- Experiment Description: solvent given as SMILES
- Run Conditions: in Cc1ccccc1
Answers are plain numbers, in nm.

- Compound: "CC1(C)c2cc(-n3c4ccccc4c4ccccc43)ccc2N(c2ccc(-c3cc(-c4ccccc4)nc(-c4ccccc4)n3)cc2)c2ccc(-n3c4ccccc4c4ccccc43)cc21"
  Reading Unit: "nm"
  emission maximum: 494.44
- Compound: "Cc1ccc(N(c2ccc(C)cc2)c2ccc3c4cccc5c(N(c6ccc(C)cc6)c6ccc(C)cc6)ccc(c6cccc2c63)c54)cc1"
  Reading Unit: "nm"
  emission maximum: 548
- Compound: "COc1cc(N(c2ccc(C=C(C#N)C#N)c(OC)c2)c2ccc(C=C(C#N)C#N)c(OC)c2)ccc1C=C(C#N)C#N"
  Reading Unit: "nm"
  emission maximum: 500
- Compound: "c1ccc2c(c1)c1ccccc1n2-c1cc(-c2nc3ccccn3n2)cc(-n2c3ccccc3c3ccccc32)c1"
  Reading Unit: "nm"
  emission maximum: 373
- Compound: "CCCCC(CC)CN1C(=O)c2cc(Oc3ccc(C(C)(C)C)cc3)c3c4c(Cl)cc5c6c(cc(Cl)c(c7c(Oc8ccc(C(C)(C)C)cc8)cc(c2c37)C1=O)c64)C(=O)N(c1c(C(C)C)cccc1C(C)C)C5=O (stereo unspecified)"
  Reading Unit: "nm"
  emission maximum: 606

I have this compound here, `CC(C)(C)c1ccc2c(c1)c1cc(C(C)(C)C)ccc1n2-c1cc(N2c3ccccc3C(c3ccccc3)(c3ccccc3)c3ccccc32)cc(-n2c3ccc(C(C)(C)C)cc3c3cc(C(C)(C)C)ccc32)c1C#N` , and I need its recorded emission maximum.
458
